Below: a set of entries, each annotated with reported concentration at 6 h.
Assay: Example 9 pharmacokinetics assay for efficacy study Part I and II (plasma, liver)
Assay type: in vivo, BALB/c nude mice
Details: mouse, plasma, po; 10 mg/kg, p.o., BID × 14 days; 6 h following treatment; ± SEM; read-out: Mean Concentration in Plasma
Form entry: value (ng/mL) — number only.

compound | concentration at 6 h / ng/mL
CCN(C)S(=O)(=O)Nc1ccc(F)c(Oc2ccc3ncc(OC4CC5(CCN(C6CCC(c7cc8c(cc7F)c(N7CCC(=O)NC7=O)nn8C)CC6)CC5)C4)nc3c2)c1C#N (single isomer, unassigned) [Compound 218] | 2270

We now examine a further compound.
Qu. What value of measured concentration at 6 h is listed for CO[C@H]1CCN(S(=O)(=O)Nc2ccc(F)c(Oc3ccc4ncn([C@H]5COC6(CCN(C7CC8(C7)CN(c7cc9c(cc7F)c(N7CCC(=O)NC7=O)nn9C)C8)CC6)C5)c(=O)c4c3)c2C#N)C1 [Compound 157] ?
Ans. 12500
